Experiment: folding stability dG unfold from trypsin proteolysis; higher = more stable
Listed next: entries and their corresponding folding stability dG unfold.
Please reply with the bare figure in kcal/mol and do not write the unit itself.

Use these answered entries as a reference point.
query: Report folding stability dG unfold for SAGGSAGGSTIMFKVDSPDELIDKIKIPPGFRVEIMQTPDRYYVMIRPPPSPEQMAKREKNNGSAGGSAGGS [r12_274_TrROS] please.
result: 3.35

query: Report folding stability dG unfold for SAGGSAGGSAMWVIRIWFPNGNKRTIPIPPNEKLTAEEILDEFRIPNGREMRILRVEIWPYSAGGSAGGSAG [r3_465_TrROS] please.
result: 1.97

query: Report folding stability dG unfold for SAGGSAGGSAGGGSVTIRVESPEEAVATAKELLEKLTGAKPEATPLNVVVEEPDGVATVESAGGSAGGSAGG [r7_387_JUSTAS] please.
result: 1.03

Proceed to the following item.
query: Report folding stability dG unfold for SAGGSAGGSAGGMAASVSPSVSYDPNTPVTNTKYTITTDGGVTPTTVVTPVVTPPPSPALSAGGSAGGSAGG [r7_413_JUSTAS] please.
result: -0.148
